- Assay overview: octanol-H2O partition coefficient
- Assay type: physicochemical
- Experimental conditions: octanol-water, read-out: Log p (octanol-H2O) partition coeff.
Kindly supply the reported logP values for the records listed here.
Hey, just send me the number, nothing else.

For the molecule shown here, O=C1CN(c2cccc(Cl)c2Cl)C(=O)N1 [Example 2] , give the reported logP. 1.16

For the molecule shown here, Cc1cc(Cl)ccc1N1CC(=O)NC1=O [Example 5] , give the reported logP. 0.86

For the molecule shown here, O=C1CN(Cc2ccccc2Cl)C(=O)N1 [Example 6, 1-(2-chlorobenzyl)imidazoline-2,4-dione] , give the reported logP. 1.12

For the molecule shown here, O=C1CN(c2ccccc2Cl)C(=O)N1 [Example 1, 1-(2-chlorophenyl)imidazoline-2,4-dione] , give the reported logP. 0.49

For the molecule shown here, O=C1CN(c2c(Cl)cccc2Cl)C(=O)N1 [Example 3] , give the reported logP. 0.69

For the molecule shown here, O=C1CN(Cc2c(F)cccc2F)C(=O)N1 [Example 8] , give the reported logP. 0.63

For the molecule shown here, O=C1CN(Cc2c(Cl)cccc2Cl)C(=O)N1 [Example 7] , give the reported logP. 1.44

Attribution: patent US5817685A
